Experiment: AUC (0 to infinity) in ICR mouse at 1 mg/kg, iv by LC-MS/MS analysis
Assay type: ADME, organism-based
Design: dose 1 mg/kg, route intravenous, time infinity
Details: in vivo
measure.name: AUC(0-inf) (ng·h/mL)
Give the quantity in ng·h/mL, number only.

What value of AUC(0-inf) has been recorded for this entry: C=CC(=O)Nc1cccc(-n2c(=O)n(C(C)C)c(=O)c3cnc(Nc4ccc(N5CCN(C)CC5)cc4OC)nc32)c1
186

----------
Assay: Apparent permeability from apical to basolateral side in MDCK2 cells at 2 uM after 2.5 hrs by LC-MS/MS method
Format: ADME, cell-based, Canis lupus familiaris, MDCK-II
Details: dog, MDCK
measure.name: Papp A→B at 2.5 h, 2 µM (×10⁻⁶ cm/s)
Give the quantity in ×10⁻⁶ cm/s, number only.

What value of Papp A→B at 2.5 h, 2 µM has been recorded for this entry: C=CC(=O)Nc1cccc(-n2c(=O)n(C(C)C)c(=O)c3cnc(Nc4ccc(N5CCN(C)CC5)cc4OC)nc32)c1
1.5

Taken from ChEMBL document CHEMBL4118273.
